Reference for the values: patent US8329904B2

- SUBJECT_OF_TEST: human HSL (Homo sapiens)
- Construct: overlapping PCR to generate a full length human HSL ORF with a 3′-His6 tag; His6 (C)
- Sequence (Q05469 whole entry): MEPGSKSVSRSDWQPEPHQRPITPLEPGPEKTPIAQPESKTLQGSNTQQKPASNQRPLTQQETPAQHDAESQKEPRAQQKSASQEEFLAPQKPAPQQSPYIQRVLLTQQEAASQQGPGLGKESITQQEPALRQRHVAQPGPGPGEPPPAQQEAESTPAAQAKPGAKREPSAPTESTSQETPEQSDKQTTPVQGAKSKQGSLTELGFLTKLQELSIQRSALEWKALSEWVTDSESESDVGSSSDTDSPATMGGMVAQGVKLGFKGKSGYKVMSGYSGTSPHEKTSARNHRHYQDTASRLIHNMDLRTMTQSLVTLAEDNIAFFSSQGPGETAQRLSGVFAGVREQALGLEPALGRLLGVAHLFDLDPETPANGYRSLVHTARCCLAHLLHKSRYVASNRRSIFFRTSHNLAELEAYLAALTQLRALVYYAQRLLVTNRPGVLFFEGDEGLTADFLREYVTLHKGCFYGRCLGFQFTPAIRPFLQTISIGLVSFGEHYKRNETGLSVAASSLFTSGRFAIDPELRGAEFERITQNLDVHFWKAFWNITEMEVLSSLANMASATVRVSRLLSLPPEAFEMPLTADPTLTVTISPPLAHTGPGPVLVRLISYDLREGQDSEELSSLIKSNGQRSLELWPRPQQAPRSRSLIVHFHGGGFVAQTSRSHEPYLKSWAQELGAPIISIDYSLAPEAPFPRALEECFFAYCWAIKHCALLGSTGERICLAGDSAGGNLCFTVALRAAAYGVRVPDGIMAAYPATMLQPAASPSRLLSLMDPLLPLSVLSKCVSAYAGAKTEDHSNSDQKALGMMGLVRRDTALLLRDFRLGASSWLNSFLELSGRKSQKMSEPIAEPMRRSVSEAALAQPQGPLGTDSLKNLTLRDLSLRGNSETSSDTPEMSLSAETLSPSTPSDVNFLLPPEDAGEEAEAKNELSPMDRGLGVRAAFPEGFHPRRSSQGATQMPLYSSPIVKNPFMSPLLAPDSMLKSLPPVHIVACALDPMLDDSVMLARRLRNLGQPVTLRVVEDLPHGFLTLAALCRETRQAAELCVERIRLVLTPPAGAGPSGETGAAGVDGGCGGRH
- PROTOCOL_NOTES: Human Hormone-Sensitive Lipase (HSL) Enzyme Inhibition Assay
- ASSAY_CONTEXT: colorimetric assay, 2,3-dimercapto-1-propanol tributyrate (DMPT) substrate, 37° C. for 20 minutes, absorbance at 405 nm; read-out: HSL hum IC50
Provide the recorded IC50 for the entries that follow.
Record the value in nM, omitting the unit from your answer.

Asked: Query: IC50; subject: CC(C)(C)CCC(=O)N1CCC2(CC1)CCN(c1ccc(OC(F)(F)F)cc1)C2=O [Example 14]
Given back: 170

Asked: Query: IC50; subject: O=C1N(c2ccc(OCC(F)(F)F)cc2)CCC12CCN(S(=O)(=O)c1cccnc1Cl)CC2 [Example 206]
Given back: 30

Asked: Query: IC50; subject: CC(C)CS(=O)(=O)N1CCC2(CCN(c3ccc(CC(F)(F)F)cc3)C2=O)CC1 [Example 60]
Given back: 40

Asked: Query: IC50; subject: O=C1N(c2ccc(OC(F)(F)F)cc2)CCC12CCN(S(=O)(=O)c1ccc(C(F)(F)F)cc1Cl)CC2 [Example 70]
Given back: 140

Asked: Query: IC50; subject: O=C1N(c2ccc(C(F)(F)F)cc2)CCC12CCN(S(=O)(=O)c1ccccc1Cl)CC2 [Example 179]
Given back: 40

Asked: Query: IC50; subject: CCCCN(C)C(=O)N1CCC2(CC1)CCN(c1ccc(C3CC3)cc1)C2=O [Example 314]
Given back: 130

Asked: Query: IC50; subject: O=C1N(c2ccc(OCC(F)(F)F)cc2)CCC12CCN(S(=O)(=O)c1ccccc1)CC2 [Example 26]
Given back: 60

Asked: Query: IC50; subject: O=C(NCc1ccccc1Cl)N1CCC2(CC1)CCN(c1ccc(OC(F)(F)F)cc1)C2=O [Example 262]
Given back: 340

Asked: Query: IC50; subject: CCc1ccc(N2CCC3(CCN(S(=O)(=O)c4cccs4)CC3)C2=O)cc1 [Example 29]
Given back: 50

Asked: Query: IC50; subject: CCc1ccc(N2CCC3(CCN(C(=O)NCc4ccc(F)cc4)CC3)C2=O)cc1 [Example 260]
Given back: 310

Asked: Query: IC50; subject: O=C1N(c2ccc(C3(O)COC3)cc2)CCC12CCN(S(=O)(=O)c1ccccc1Cl)CC2 [Example 229]
Given back: 240

Asked: Query: IC50; subject: O=C1N(c2ccc(CC(F)(F)F)cc2)CCC12CCN(S(=O)(=O)c1ccccc1OC(F)(F)F)CC2 [Example 78]
Given back: 30

Asked: Query: IC50; subject: CN(C(=O)N1CCC2(CC1)CCN(c1ccc(OC(F)(F)F)cc1)C2=O)C1CCCCC1 [Example 276]
Given back: 70

Asked: Query: IC50; subject: O=C1N(c2ccc(OCCC(F)(F)F)nc2)CCC12CCN(S(=O)(=O)c1ccccc1Cl)CC2 [Example 116]
Given back: 110

Asked: Query: IC50; subject: CN(c1ccccc1)S(=O)(=O)N1CCC2(CCN(c3ccc(OC(F)(F)F)cc3)C2=O)CC1 [Example 295]
Given back: 70

Asked: Query: IC50; subject: CS(=O)(=O)Oc1ccc(N2CCC3(CCN(S(=O)(=O)c4ccccc4OC(F)(F)F)CC3)C2=O)cc1 [Example 56]
Given back: 20

Asked: Query: IC50; subject: CC(Oc1ccc(N2CCC3(CCN(S(=O)(=O)c4ccccc4C(F)(F)F)CC3)C2=O)cc1)C(F)(F)F (centres unmarked) [Example 101]
Given back: 40
